Tested on: OVCAR-5 ovarian
Assay: NCI tumour cell line growth inhibition, 48 h

[
  {
    "Molecule": "OCC1OC(c2scc3c(=S)nc[nH]c23)C(O)C1O (configuration not stated)",
    "TGI": "> 100 µM"
  },
  {
    "Molecule": "COC(=O)N1CC2(CO)C3CC=C(C(=O)Nc4ccccc4Br)C2C1C3Br (configuration not stated)",
    "TGI": "> 50 µM"
  },
  {
    "Molecule": "CC1=CCC[C@@]2(C)C(CC[C@@H]2C(C)/C=C/C(C)C)c2ccc(cc2C(=O)O)C[C@@H](O)CC1 (some centres not stated)",
    "TGI": "30 µM"
  },
  {
    "Molecule": "O=C(CC1=Nc2nnc(-c3nnc4n3C(=O)C(CC(=O)c3cccnc3)=N4)n2C1=O)c1cccnc1",
    "TGI": "> 100 µM"
  },
  {
    "Molecule": "CCSc1nnc2c(-c3ccccc3)n[nH]c2n1",
    "TGI": "> 100 µM"
  },
  {
    "Molecule": "O=C(CSCC(=O)N/N=C/c1cc(I)cc(I)c1O)N/N=C/c1cc(I)cc(I)c1O",
    "TGI": "82.5 µM"
  },
  {
    "Molecule": "CC[P+](C)(Cc1ccccc1)c1ccccc1 (configuration not stated)",
    "TGI": "> 100 µM"
  },
  {
    "Molecule": "CCOc1ccc(NC(=O)CC2SC(=Nc3ccc(Cl)cc3)NC2=O)cc1 (configuration not stated)",
    "TGI": "> 100 µM"
  },
  {
    "Molecule": "O=C(Nc1c(O)[nH]c(=S)[nH]c1=O)c1ccccn1",
    "TGI": "> 100 µM"
  },
  {
    "Molecule": "C=CCC1OC(C)(C)Oc2ccc(OCOCCOC)cc21 (configuration not stated)",
    "TGI": "> 100 µM"
  },
  {
    "Molecule": "C1=C(c2ccccc2)CN(c2ccccc2)OC1",
    "TGI": "> 100 µM"
  },
  {
    "Molecule": "CCC1(C)NN=c2s/c(=C/c3ccc(OC)cc3)c(=O)n2N1 (configuration not stated)",
    "TGI": "> 100 µM"
  }
]

* * *

Test system: IGROV1 ovarian
Assay: NCI tumour cell line growth inhibition, 48 h

[
  {
    "Compound": "Cn1cc(-c2nonc2-c2c[nH]c3ccccc23)c2ccccc21",
    "System tested": "IGROV1 ovarian",
    "Result qualifier": "=",
    "TGI / µM": 18.3
  },
  {
    "Compound": "CCN(CC)CCNC(=O)c1ccccc1NC(=O)C(=O)Nc1ccccc1C(=O)NCCN(CC)CC",
    "System tested": "IGROV1 ovarian",
    "Result qualifier": ">",
    "TGI / µM": 100
  },
  {
    "Compound": "CCSc1nnc2c(-c3ccccc3)n[nH]c2n1",
    "System tested": "IGROV1 ovarian",
    "Result qualifier": ">",
    "TGI / µM": 100
  },
  {
    "Compound": "COC(=O)N1CC2(CO)C3CC=C(C(=O)Nc4ccccc4Br)C2C1C3Br (stereo not given)",
    "System tested": "IGROV1 ovarian",
    "Result qualifier": ">",
    "TGI / µM": 50
  },
  {
    "Compound": "CCCN(CCC)CCCNCc1cc(I)cc(C)c1O",
    "System tested": "IGROV1 ovarian",
    "Result qualifier": "=",
    "TGI / µM": 29.6
  }
]
